IC50 overview
- system: human P2X3 receptor (Homo sapiens (Human), UniProt P56373)
- Sequence (P56373 whole entry): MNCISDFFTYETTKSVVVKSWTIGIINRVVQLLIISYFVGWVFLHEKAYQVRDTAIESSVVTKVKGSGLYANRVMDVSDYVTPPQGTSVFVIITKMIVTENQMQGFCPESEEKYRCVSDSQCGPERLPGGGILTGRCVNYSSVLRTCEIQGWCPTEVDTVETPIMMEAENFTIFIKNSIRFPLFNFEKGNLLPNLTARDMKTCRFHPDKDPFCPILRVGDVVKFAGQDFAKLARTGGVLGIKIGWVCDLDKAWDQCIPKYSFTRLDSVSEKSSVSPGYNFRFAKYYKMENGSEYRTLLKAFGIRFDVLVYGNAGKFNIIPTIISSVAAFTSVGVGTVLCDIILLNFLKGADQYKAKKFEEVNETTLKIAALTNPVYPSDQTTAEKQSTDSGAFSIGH
- assay.method.text: Evaluation of human P2X3 receptor inhibitory activity (Fluo-3 calcium fluorescence, FDSS 3000, ATP stimulation);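 further: stimulus was 50 nM ATP with fluorescence followed for 3 min, and the response per well was peak post-ATP fluorescence divided by the reading at measurement start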
- Type: cell-based
- condition.parameters: C6BU-1 cells stably expressing human P2X3 receptor

# compound, unit.annotation, IC50
rows = [
    ("CCc1oc2ccc(/N=c3\\[nH]c(=O)n(C[C@H](C)C(=O)O)c(=O)n3Cc3ccc(Cl)cc3)cc2c1C [Compound I-1465]", "nM", 6),
    ("CCn1c(=O)[nH]/c(=N\\c2ccc(Oc3cc(C(=O)OC)nc(Cl)n3)cc2)n(Cc2ccc(Cl)cc2)c1=O [Compound I-2210]", "nM", 14),
    ("CC(C)Oc1ccc(/N=c2\\[nH]c(=O)n([C@@H]3C[C@H]3C(=O)O)c(=O)n2Cc2ccc(Cl)cc2)cc1F [Compound I-0612]", "nM", 38),
    ("O=c1[nH]/c(=N\\c2ccc(Oc3ccnc(CO)c3)cc2)n(Cc2ccc(Cl)cc2)c(=O)n1CCCO [Compound I-1995]", "nM", 5),
    ("CCn1c(=O)[nH]/c(=N\\c2ccc(Oc3cncc(C(=O)OC)c3)cc2)n(CC2CCC3(CC2)CC3)c1=O [Compound I-2173]", "nM", 12),
    ("CCn1c(=O)[nH]/c(=N\\c2ccc(Oc3cccc4ocnc34)c(Cl)c2)n(Cc2ccc(Cl)cc2)c1=O [Compound I-2195]", "nM", 14),
    ("COC(=O)[C@@H](C)[C@@H](C)n1c(=O)[nH]/c(=N\\c2ccc(OC3CCC3)cc2)n(Cc2ccc(C)cc2)c1=O [Compound I-1453]", "nM", 13),
    ("CCn1c(=O)[nH]/c(=N\\c2ccc(Oc3cccc(C(=O)OC)n3)cc2)n(Cc2ccc(C)cc2)c1=O [Compound I-2180]", "nM", 11),
    ("O=C(O)CCn1c(=O)[nH]/c(=N\\c2ccc(Oc3ccncc3)cc2)n(Cc2ccc(Cl)cc2)c1=O [Compound I-1207]", "nM", 15),
    ("CCn1c(=O)[nH]/c(=N\\c2ccc(Oc3ccc(C(=O)O)nc3)cc2)n(Cc2ccc(C)cc2)c1=O [Compound I-2116]", "nM", 15),
    ("Cc1cc(Oc2ccc(/N=c3\\[nH]c(=O)n(CCCC(=O)O)c(=O)n3Cc3ccc(Cl)cc3)cc2)ccn1 [Compound I-1404]", "nM", 24),
    ("Cc1ccc(Cn2c(=O)n(C[C@H](C)C(=O)O)c(=O)[nH]/c2=N\\c2cnc(OC3CCC3)c(Cl)c2)cc1 [Compound I-1410]", "nM", 56),
    ("CCCOc1ccc(/N=c2\\[nH]c(=O)n(C[C@H](C)C(=O)O)c(=O)n2Cc2ccc(Cl)cc2)cc1C [Compound I-0711]", "nM", 40),
    ("COC(=O)[C@@H](C)Cn1c(=O)[nH]/c(=N\\c2ccc(OCC(C)C)cc2)n(Cc2ccc(C)cc2)c1=O [Compound I-0812]", "nM", 33),
]

---

Listed molecules paired with reported pIC50
- system: human P2X3 receptor (Homo sapiens (Human))
- assay.method.text: Evaluation of human P2X3 receptor inhibitory activity (Fluo-3 calcium fluorescence, FDSS 3000, ATP stimulation)
- Assay type: cell-based
- condition.parameters: human P2X3 receptor, Test Example 1
pIC50: −log10 of the molar value.
readout.name: pIC50

# mol, system, readout.name, endpoint.value
records = [
    ("Cc1ccc(Cn2c(=O)n(CCC(=O)O)c(=O)[nH]/c2=N\\c2ccc(Oc3cccc(C#N)n3)cc2)cc1", "human P2X3 receptor (Homo sapiens (Human))", "pIC50", 7.96),
    ("NC(=O)Cn1c(=O)[nH]/c(=N\\c2ccc(Oc3ncccn3)cc2)n(Cc2ccc(Cl)cc2)c1=O", "human P2X3 receptor (Homo sapiens (Human))", "pIC50", 7.44),
    ("CCn1c(=O)[nH]/c(=N\\c2ccc(Oc3cncc(C(=O)O)n3)cc2)n(Cc2ccc(C)cc2)c1=O", "human P2X3 receptor (Homo sapiens (Human))", "pIC50", 8.15),
    ("CC[C@@H](C)n1c(=O)[nH]/c(=N\\c2ccc(Oc3cncc(C(=O)O)c3)cc2)n(Cc2ccc(Cl)cc2)c1=O", "human P2X3 receptor (Homo sapiens (Human))", "pIC50", 8.10),
    ("O=c1[nH]/c(=N\\c2ccc(Oc3cccc(F)n3)cc2)n(Cc2ccc(Cl)cc2)c(=O)n1CC(CO)CO", "human P2X3 receptor (Homo sapiens (Human))", "pIC50", 8.52),
    ("COC(=O)C[C@@H](C)n1c(=O)[nH]/c(=N\\c2ccc(OC(C)C)c(Cl)c2)n(Cc2ccc(C)cc2)c1=O", "human P2X3 receptor (Homo sapiens (Human))", "pIC50", 7.85),
    ("CC(C)Oc1ccc(/N=c2\\ncn(C(C)C)c(=O)n2Cc2ccc(Cl)cc2)cc1", "human P2X3 receptor (Homo sapiens (Human))", "pIC50", 6.11),
]

---

- system: human P2X3 receptor (Homo sapiens (Human))
- assay.method.text: Evaluation of human P2X3 receptor inhibitory activity (Fluo-3 calcium fluorescence, FDSS 3000, ATP stimulation)
- Format: cell-based
- condition.parameters: C6BU-1 cells stably expressing human P2X3 receptor, Fluo-3 fluorescence, FDSS 3000
pIC50: −log10 of the molar value.
# pIC50 per record follows

# mol, system, pIC50
measured = [
    ("C[C@@H](C(=O)O)[C@H](C)n1c(=O)[nH]/c(=N\\c2ccc3c(c2)C(=O)CC3)n(Cc2ccc(Cl)cc2)c1=O", "human P2X3 receptor (Homo sapiens (Human))", 6.13),
    ("CCc1oc2ccc(/N=c3\\[nH]c(=O)n(CCCC(=O)O)c(=O)n3Cc3ccc(Cl)cc3)cc2c1C", "human P2X3 receptor (Homo sapiens (Human))", 7.82),
    ("Cc1nc2ccc(/N=c3\\[nH]c(=O)n(CC(C)(C)C(=O)O)c(=O)n3Cc3ccc(Cl)cc3)cc2s1", "human P2X3 receptor (Homo sapiens (Human))", 8.10),
    ("Cc1ccc(Cn2c(=O)n([C@@H](C)[C@@H](C)C(=O)O)c(=O)[nH]/c2=N\\c2ccc(OC(C)C)c(C)c2)cc1", "human P2X3 receptor (Homo sapiens (Human))", 7.52),
    ("Cc1cc(Oc2ccc(/N=c3\\[nH]c(=O)n(CCCO)c(=O)n3Cc3ccc(Cl)cc3)cc2)ccn1", "human P2X3 receptor (Homo sapiens (Human))", 8.30),
    ("Cc1cc(/N=c2\\[nH]c(=O)n(C3CN(CC(=O)O)C3)c(=O)n2Cc2ccc(Cl)cc2)ccc1OC(C)C", "human P2X3 receptor (Homo sapiens (Human))", 6.87),
    ("CCc1oc2ccc(/N=c3\\[nH]c(=O)n(CC4(C)COC(C)(C)OC4)c(=O)n3Cc3ccc(Cl)cc3)cc2c1C", "human P2X3 receptor (Homo sapiens (Human))", 8.05),
    ("CCOC(=O)CCn1c(=O)[nH]/c(=N\\c2cccc(S(F)(F)(F)(F)F)c2)n(Cc2ccc(Cl)cc2)c1=O", "human P2X3 receptor (Homo sapiens (Human))", 7.37),
    ("O=c1[nH]/c(=N\\c2ccc(Oc3ccnc(O)c3)cc2)n(Cc2ccc(Cl)cc2)c(=O)n1CCO", "human P2X3 receptor (Homo sapiens (Human))", 8.40),
    ("C[C@@H](C(=O)O)[C@H](C)n1c(=O)[nH]/c(=N\\c2ccc3c(c2)CCCO3)n(Cc2ccc(Cl)cc2)c1=O", "human P2X3 receptor (Homo sapiens (Human))", 6.69),
    ("COCO[C@@H](Cn1c(=O)[nH]/c(=N\\c2ccc(OC(C)C)c(C)c2)n(Cc2ccc(Cl)cc2)c1=O)C(=O)OC", "human P2X3 receptor (Homo sapiens (Human))", 7.70),
    ("Cc1ccc(Cn2c(=O)n(CCC(=O)O)c(=O)[nH]/c2=N\\c2ccc3nc(C4CC4)sc3c2)cc1", "human P2X3 receptor (Homo sapiens (Human))", 7.49),
    ("Cc1cc(/N=c2\\[nH]c(=O)n(C[C@H](C)C(=O)O)c(=O)n2Cc2ccc(C(C)C)cc2)ccc1OC(C)C", "human P2X3 receptor (Homo sapiens (Human))", 6.26),
    ("Cc1ccc(Cn2c(=O)n(C[C@H](C)C(=O)O)c(=O)[nH]/c2=N\\c2ccc(OC(C)C)c(O)c2)cc1", "human P2X3 receptor (Homo sapiens (Human))", 7.46),
    ("C[C@@H](C(=O)O)[C@H](C)n1c(=O)[nH]/c(=N\\c2ccc3oc4c(c3c2)CCCC4)n(Cc2ccc(Cl)cc2)c1=O", "human P2X3 receptor (Homo sapiens (Human))", 6.63),
    ("CCSc1ccc(/N=c2\\[nH]c(=O)n(C[C@H](C)C(=O)OC)c(=O)n2Cc2ccc(Cl)cc2)cc1C", "human P2X3 receptor (Homo sapiens (Human))", 6.89),
    ("COc1ccc(Oc2ccc(/N=c3\\[nH]c(=O)n(CC(=O)O)c(=O)n3Cc3ccc(Cl)cc3)cc2)cn1", "human P2X3 receptor (Homo sapiens (Human))", 6.42),
    ("C[C@@H](C(=O)O)[C@H](C)n1c(=O)[nH]/c(=N\\c2ccc3c(c2)CCC3=O)n(Cc2ccc(Cl)cc2)c1=O", "human P2X3 receptor (Homo sapiens (Human))", 6.06),
    ("CC[C@H](C)COc1ccc(/N=c2\\[nH]c(=O)n(C[C@H](C)C(=O)O)c(=O)n2Cc2ccc(C)cc2)cc1", "human P2X3 receptor (Homo sapiens (Human))", 6.91),
    ("CC(=O)NCCCn1c(=O)[nH]/c(=N\\c2ccc(CC(C)C)c(Cl)c2)n(Cc2ccc(Cl)cc2)c1=O", "human P2X3 receptor (Homo sapiens (Human))", 8.05),
    ("CCOC(=O)CN1CC(n2c(=O)[nH]/c(=N\\c3ccc(OC(C)C)c(C)c3)n(Cc3ccc(Cl)cc3)c2=O)C1", "human P2X3 receptor (Homo sapiens (Human))", 7.26),
    ("CCCOc1ccc(/N=c2\\[nH]c(=O)n(C[C@@H](CC)C(=O)O)c(=O)n2Cc2ccc(Cl)cc2)cc1", "human P2X3 receptor (Homo sapiens (Human))", 7.08),
    ("Cc1ccc(Cn2c(=O)n(C[C@H](C)C(=O)O)c(=O)[nH]/c2=N\\c2ccc(N3CCCCC3)cc2)cc1", "human P2X3 receptor (Homo sapiens (Human))", 7.42),
    ("CCc1nc2ccc(/N=c3\\[nH]c(=O)n(CCNC(C)=O)c(=O)n3Cc3ccc(Cl)cc3)cc2s1", "human P2X3 receptor (Homo sapiens (Human))", 8.30),
    ("Cc1ccc(Cn2c(=O)n(CCC(=O)O)c(=O)[nH]/c2=N\\c2nc3ccccc3s2)cc1", "human P2X3 receptor (Homo sapiens (Human))", 6.01),
    ("Cc1ccc(Cn2c(=O)n(C[C@H](C)C(=O)O)c(=O)[nH]/c2=N\\c2ccc(CC3CCCC3)cc2)cc1", "human P2X3 receptor (Homo sapiens (Human))", 7.37),
    ("Cc1ccc(Cn2c(=O)n(C[C@H](C)C(=O)O)c(=O)[nH]/c2=N\\c2ccc(Cl)c(C(F)(F)F)c2)cc1", "human P2X3 receptor (Homo sapiens (Human))", 6.64),
]
